- test_description: S. cerevisiae growth modulation with rapamycin, primary screen, strain BY4716, OD600, 96 h (AID 1091); also: test concentration not given here
- assay_context: higher = more signal, called active from +8 up or from −8 down
Binary classification by z-score, with 0.3 as an inclusive lower bound for class 1; all other cases are class 0.

Exercise: // inclusive: z-score at least 0.3? input: CCCNC(=O)[C@@]1(Sc2ccc(C)cc2)CC(=O)N(C2CCCCC2)[C@@H]1c1ccc(CO)cc1I
Solution: class 0

Exercise: Test whether the compound COCCOC(=O)N1C(=O)[C@@]2(c3cc(C#CCC(C(=O)OC)C(=O)OC)ccc31)[C@H](c1ccc(O)cc1)N1[C@H](c3ccccc3)[C@H](c3ccccc3)OC(=O)[C@H]1[C@@H]2C(=O)NC[C@H](O)c1ccccc1 records z-score of 0.3 or higher.
Solution: class 1

Exercise: Determine whether this compound has z-score no lower than 0.3: CCOC(=O)C1=CCC(c2ccco2)N(S(=O)(=O)c2ccc(C)cc2)C1 (configuration not stated)
Solution: class 0

Exercise: # check: z-score of CC(C)CNC(=O)[C@@]1(C)c2ccccc2C(=O)N(Cc2cc(C(F)(F)F)cc(C(F)(F)F)c2)[C@H]1c1ccc(CO)cc1 is greater than or equal to 0.3
Solution: class 0

Exercise: Would you say [N-]=[N+]=NCc1ccccc1C[C@]1(C(=O)N2CCOCC2)COC(c2ccc(OCCCO)cc2)=N1 shows z-score at minimum 0.3?
Solution: class 1

Exercise: # check: z-score of CCOC(=O)C1=CCN(S(=O)(=O)c2ccc(C)cc2)C1c1ccccc1 (configuration not stated) is greater than or equal to 0.3
Solution: class 1

Exercise: Kindly determine if z-score recorded for Cc1ccccc1C(O)C1C=CC2C(=O)N(c3ccccc3)C(=O)C2N1Nc1ccc([N+](=O)[O-])cc1 (configuration not stated) is above or exactly 0.3.
Solution: class 1

###

- target_under_test: Neurogenic locus notch homolog protein 3 (Homo sapiens) (UniProt Q9UM47)
- Sequence (Q9UM47 whole entry, looked up): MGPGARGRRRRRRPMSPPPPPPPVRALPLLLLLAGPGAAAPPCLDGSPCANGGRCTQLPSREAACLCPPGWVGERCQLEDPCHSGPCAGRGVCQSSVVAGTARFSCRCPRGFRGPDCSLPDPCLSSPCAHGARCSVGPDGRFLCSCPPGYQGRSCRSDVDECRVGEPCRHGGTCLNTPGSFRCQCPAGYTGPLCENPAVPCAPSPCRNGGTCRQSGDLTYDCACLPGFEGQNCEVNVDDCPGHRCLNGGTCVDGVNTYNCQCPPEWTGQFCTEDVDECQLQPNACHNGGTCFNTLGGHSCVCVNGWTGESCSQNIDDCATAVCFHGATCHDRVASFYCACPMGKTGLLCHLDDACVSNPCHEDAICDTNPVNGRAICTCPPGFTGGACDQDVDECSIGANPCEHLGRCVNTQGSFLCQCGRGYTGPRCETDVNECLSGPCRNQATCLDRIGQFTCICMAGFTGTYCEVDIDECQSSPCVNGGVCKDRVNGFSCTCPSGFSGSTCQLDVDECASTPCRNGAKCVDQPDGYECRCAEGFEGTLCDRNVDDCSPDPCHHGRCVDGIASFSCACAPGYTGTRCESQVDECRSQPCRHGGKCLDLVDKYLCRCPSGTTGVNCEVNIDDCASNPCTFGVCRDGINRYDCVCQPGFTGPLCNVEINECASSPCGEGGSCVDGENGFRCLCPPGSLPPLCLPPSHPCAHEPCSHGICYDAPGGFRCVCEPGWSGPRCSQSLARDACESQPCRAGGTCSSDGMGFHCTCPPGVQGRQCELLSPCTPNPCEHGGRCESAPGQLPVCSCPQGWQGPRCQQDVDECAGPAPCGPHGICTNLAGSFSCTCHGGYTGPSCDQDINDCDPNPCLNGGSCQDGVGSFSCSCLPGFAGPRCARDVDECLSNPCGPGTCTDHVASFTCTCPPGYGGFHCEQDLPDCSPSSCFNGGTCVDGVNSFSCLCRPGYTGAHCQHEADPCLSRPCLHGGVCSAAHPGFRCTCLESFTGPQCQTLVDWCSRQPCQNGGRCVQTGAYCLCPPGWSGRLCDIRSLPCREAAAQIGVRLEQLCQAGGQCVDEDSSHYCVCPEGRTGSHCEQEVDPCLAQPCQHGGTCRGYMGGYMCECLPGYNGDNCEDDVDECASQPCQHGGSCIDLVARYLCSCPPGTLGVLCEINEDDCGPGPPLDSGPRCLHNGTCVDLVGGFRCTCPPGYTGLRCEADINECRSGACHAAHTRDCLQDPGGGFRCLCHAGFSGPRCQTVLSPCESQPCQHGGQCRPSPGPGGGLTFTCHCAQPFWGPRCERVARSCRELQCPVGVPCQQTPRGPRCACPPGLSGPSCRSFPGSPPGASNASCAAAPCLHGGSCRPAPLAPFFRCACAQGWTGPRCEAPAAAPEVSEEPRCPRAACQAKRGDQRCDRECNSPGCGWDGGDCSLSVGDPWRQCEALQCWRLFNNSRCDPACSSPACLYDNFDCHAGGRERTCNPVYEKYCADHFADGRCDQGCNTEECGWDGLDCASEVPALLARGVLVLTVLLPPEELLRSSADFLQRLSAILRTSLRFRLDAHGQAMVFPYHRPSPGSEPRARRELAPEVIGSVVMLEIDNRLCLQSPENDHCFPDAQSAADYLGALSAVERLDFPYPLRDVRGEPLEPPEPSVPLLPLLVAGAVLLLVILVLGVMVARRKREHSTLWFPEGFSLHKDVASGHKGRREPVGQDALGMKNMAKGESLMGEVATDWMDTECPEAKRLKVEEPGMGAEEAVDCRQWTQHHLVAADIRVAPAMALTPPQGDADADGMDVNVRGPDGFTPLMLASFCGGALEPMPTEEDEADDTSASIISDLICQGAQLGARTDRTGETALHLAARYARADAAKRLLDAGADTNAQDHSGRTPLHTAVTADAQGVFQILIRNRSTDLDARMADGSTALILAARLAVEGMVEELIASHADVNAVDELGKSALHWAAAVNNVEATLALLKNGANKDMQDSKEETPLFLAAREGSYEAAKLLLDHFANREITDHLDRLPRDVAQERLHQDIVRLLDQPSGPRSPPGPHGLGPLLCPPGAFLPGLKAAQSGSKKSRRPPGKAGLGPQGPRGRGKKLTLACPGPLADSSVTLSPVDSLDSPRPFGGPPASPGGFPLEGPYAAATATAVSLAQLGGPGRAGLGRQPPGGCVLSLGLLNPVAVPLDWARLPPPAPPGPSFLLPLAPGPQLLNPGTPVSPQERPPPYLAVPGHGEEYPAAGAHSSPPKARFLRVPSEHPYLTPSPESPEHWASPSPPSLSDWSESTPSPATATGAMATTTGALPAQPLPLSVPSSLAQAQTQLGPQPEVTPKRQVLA
- test_description: NOTCH3 binders on small-molecule microarray, primary screen, biochemical, 635/667 nm fluorescence (AID 1096)
- assay_context: NOTCH3 binding, 635 nm fluorescence, higher = more signal
The following compounds are shown together with reported composite z-score values.

CC(C)(C)OC(=O)CC[C@]12N=C(c3ccc(OCCCO)cc3)O[C@H]1c1ccccc1N(Cc1ccccc1)C2=O : 0.967
COC(=O)C1=CC(CCCO)=CC(C)N(Cc2cccc(OC(F)(F)F)c2)C=C1C(=O)OC (stereo not drawn) : 0.532
C=CCC(OC(C)=O)[C@@H]1[C@@H](N(Cc2ccc(-c3ccccc3)cc2)C(=O)c2ccc(C)cc2)c2cc(OCCCO)ccc2N1C(=O)Cc1ccc2ccccc2c1 (stereo partly drawn) : 0.187
COCCOC(=O)N1C(=O)[C@@]2(c3cc(C#CCNC(N)=O)ccc31)[C@H](c1ccc(O)cc1)N1[C@H](c3ccccc3)[C@H](c3ccccc3)OC(=O)[C@H]1[C@@H]2C(=O)N1CCN(c2ncccn2)CC1 : 1.15
CN1C(=O)C2C=CC(C(O)c3cc(C(F)(F)F)cc(C(F)(F)F)c3)N(Nc3ccccc3)C2C1=O (stereo not drawn) : 0.377

Exercise: Identify measured composite z-score obtained with Neurogenic locus notch homolog protein 3 (Homo sapiens) (UniProt Q9UM47) for CS(=O)(=O)CCOC(=O)C1=CC(CCCO)=CC(C2CC2)N(Cc2cccc(OC(F)(F)F)c2)C=C1C(=O)OCCS(C)(=O)=O (stereo not drawn) .
Solution: 0.0213

Exercise: State recorded composite z-score with Neurogenic locus notch homolog protein 3 (Homo sapiens) (UniProt Q9UM47), entry Cc1ccccc1C(O)C1C=CC2C(=O)N(c3ccccc3)C(=O)C2N1Nc1ccc([N+](=O)[O-])cc1 (stereo not drawn) , no comment.
Solution: 1.05

Exercise: Report its composite z-score with Neurogenic locus notch homolog protein 3 (Homo sapiens) (UniProt Q9UM47) as the test system: COCC1=C2[C@@H](CCc3ccccc3)OB(O)C[C@@H]2[C@@H]2C(=O)N(C)C(=O)[C@@H]2C1
Solution: 0.183

Exercise: Provide composite z-score, system Neurogenic locus notch homolog protein 3 (Homo sapiens) (UniProt Q9UM47), entry COCCCNC(=O)[C@@]1(Sc2ccc(C)cc2)CC(=O)N(C(C)C)[C@@H]1c1ccc(CO)cc1I
Solution: -0.365

// provenance: PubChem BioAssay
